- System: U2OS
- RUN DESCRIPTION: Incucyte cell viability with U2OS; further: unitless GR value; below 1 slowed growth and below 0 cell loss
- Assay type: toxicity, cell-based
- CONDITION SUMMARY: human, 24 h, 10 µM, compound concentration 10 uM, replicate number 1
Peptide text beside a SMILES is read from it.
Reported Growth Rate values follow for various compounds

{"COMPOUND": "O=C([O-])CCNc1cc(N2CCc3ccccc3CC2)nc(-c2cccnc2)n1.[Na+]", "Growth Rate": 0.55}
{"COMPOUND": "CC(C)N(C[C@H]1O[C@@H](n2cnc3c(N)ncnc32)[C@H](O)[C@@H]1O)[C@H]1C[C@@H](CCc2nc3cc(C(C)(C)C)ccc3[nH]2)C1", "Growth Rate": 1}
{"COMPOUND": "C[C@@H]1CN(c2nccc(Nc3ccc4c(c3)n(CCC(C)(C)O)c(=O)n4C)n2)C[C@H](C)C1(F)F", "Growth Rate": 0.72}
{"COMPOUND": "Nc1cc(F)ccc1NC(=O)c1ccc(CNC(=O)/C=C/c2cccnc2)cc1", "Growth Rate": -0.5}
{"COMPOUND": "COC[C@@H]1CCCN1S(=O)(=O)c1ccc2c(c1)C(=O)C(=O)N2", "Growth Rate": 1}
{"COMPOUND": "CCNC(=O)NCCSC[C@H]1O[C@@H](n2cnc3c(N)ncnc32)[C@H](O)[C@@H]1O", "Growth Rate": 1}
{"COMPOUND": "CCS(=O)(=O)N1CC(CC#N)(n2cc(-c3ncnc4[nH]ccc34)cn2)C1", "Growth Rate": 1}
{"COMPOUND": "Cc1cc2cc(NS(=O)(=O)c3ccc(C#N)cc3)ccc2n(C)c1=O", "Growth Rate": 1}
{"COMPOUND": "CCC(CC)(NC(=O)C(C)C)C(=O)N[C@@H](CCCNC(=N)N)C(=O)NC1(C(=O)NC(c2ccc(F)cc2)c2ccc(F)cc2)CCCC1", "Growth Rate": 1}
{"COMPOUND": "CC(=O)Nc1ccc(OC[C@](C)(O)C(=O)Nc2ccc([N+](=O)[O-])c(C(F)(F)F)c2)cc1", "Growth Rate": 1}
{"COMPOUND": "COc1cc(Oc2ccnc3cc(OC)c(OC)cc23)ccc1NC(=O)NC(C)c1nccs1 (configuration not stated)", "Growth Rate": 0.56}
{"COMPOUND": "COc1cc2c(NC3CCN(C)CC3)nc(N3CCCN(C)CC3)nc2cc1OCCCN(C)C", "Growth Rate": 0.63}
{"COMPOUND": "COc1cc(C)[nH]c(=O)c1CNC(=O)c1c(C)n([C@H](C)C2CCN(CC(F)(F)F)CC2)c2ccccc12", "Growth Rate": 0.59}
{"COMPOUND": "O=C(CCCCCCNC(=O)c1cnc(N(c2ccccc2)c2ccccc2)nc1)NO", "Growth Rate": 0}
{"COMPOUND": "Cc1cc(C)c(CNC(=O)c2cc(Cl)c3c(c2C)O[C@@](C)([C@H]2CC[C@H](N(C)C)CC2)O3)c(=O)[nH]1", "Growth Rate": 0.4}
{"COMPOUND": "COc1cc(Nc2ncc(F)c(Nc3ccc4c(n3)NC(=O)C(C)(C)O4)n2)cc(OC)c1OC", "Growth Rate": -0.31}
{"COMPOUND": "O=C(CCCCCCNC(=O)c1cnc(N(c2ccccc2)c2ccccc2Cl)nc1)NO", "Growth Rate": -0.08}
{"COMPOUND": "Cc1ncsc1-c1ccc([C@H](C)NC(=O)[C@@H]2C[C@@H](O)CN2C(=O)[C@@H](NC(=O)COCCCOCCNC(=O)C[C@@H]2N=C(c3ccc(Cl)cc3)c3c(sc(C)c3C)-n3c(C)nnc32)C(C)(C)C)cc1", "Growth Rate": -0.38}
{"COMPOUND": "CC1(C)c2cccc(C(=O)NO)c2CN1c1cnc(C(F)(F)F)cn1", "Growth Rate": 0.15}
{"COMPOUND": "CC(C)[C@@H]1C(=O)N(S(C)(=O)=O)[C@@H]2CCN(C(=O)/C=C/CN3CCCCC3)[C@H]21.Cl", "Growth Rate": 1}
{"COMPOUND": "COc1cc(Nc2ncc(F)c(Nc3ccc4c(n3)N(COP(=O)([O-])[O-])C(=O)C(C)(C)O4)n2)cc(OC)c1OC.O.O.O.O.O.O.[Na+].[Na+] [FOSTAMATINIB DISODIUM]", "Growth Rate": -0.2}
{"COMPOUND": "Cc1cc(Cn2c(=O)n(Cc3cnc(C)s3)c(=O)c3cc(S(=O)(=O)NC4(C)CC4)ccc32)n(C)n1", "Growth Rate": 0.64}
{"COMPOUND": "O=C1Cc2cc(C(=O)N[C@@H]3C[C@H]4CC[C@@H](C3)N4S(=O)(=O)CC3CCN(CCCC(F)(F)F)CC3)c(Cl)cc2N1", "Growth Rate": 1}
{"COMPOUND": "CC(C)NCC(O)COC(Cn1c2ccccc2c2ccccc21)Cn1c2ccccc2c2ccccc21 (configuration not stated)", "Growth Rate": -0.53}
{"COMPOUND": "CNC[C@@H](O)COc1ccc(Cl)c(-c2nc(-c3c(C)noc3C)c(C)c(N3CC4(CCN(C(=O)OC)CC4)C3)n2)c1", "Growth Rate": 1}
{"COMPOUND": "C[C@H]1CCCN1Cc1nc2cc(NC(=O)c3ccc4c(cnn4C)c3)ccc2[nH]1", "Growth Rate": 0.16}
{"COMPOUND": "CSCC[C@H](NC(=O)[C@H](CC(=O)O)NC(C)=O)C(=O)N[C@@H](CCC(N)=O)C(=O)N[C@H](C=O)CC(=O)O.O=C(O)C(F)(F)F (Ac-DMQD-aldehyde)", "Growth Rate": 1}
{"COMPOUND": "CN1CCN(c2cc(C(=O)Nc3ncc(SCc4cccc(C(F)(F)F)c4)s3)ccn2)CC1", "Growth Rate": 0.31}
{"COMPOUND": "CC(C)(F)C[C@H](N[C@@H](c1ccc(-c2ccc(S(C)(=O)=O)cc2)cc1)C(F)(F)F)C(=O)NC1(C#N)CC1", "Growth Rate": 0.65}
{"COMPOUND": "CS(=O)(=O)c1ccc(-c2cnc(NCc3ccco3)n3cnnc23)cc1", "Growth Rate": 1}
{"COMPOUND": "O=C(c1ccc2c(ccn2-c2ccc(F)cc2)c1)N1CC(N2CCN(C(=O)c3nccs3)CC2)C1", "Growth Rate": 0.99}
{"COMPOUND": "CCOC(=O)NCCCC(=O)NCCc1ccccc1", "Growth Rate": 0.48}
